src = the Biogen ADME set (Fang et al. 2023)

Kindly state MDR1-MDCK efflux ratio for each of the entries shown.
The answer should be a number; do not append a unit.

Given the compound Oc1cccc(/C=C/c2nc3ccccc3o2)c1 , write its reported MDR1-MDCK efflux ratio.
0.192

Given the compound N#Cc1c(O)nc2scc(-c3ccc(-c4ccccc4O)cc3)c2c1O , write its reported MDR1-MDCK efflux ratio.
1.19

Given the compound Cn1nc(CNC(=O)C2CCC2)c2ccccc21 , write its reported MDR1-MDCK efflux ratio.
0.662

Given the compound N#Cc1cccc(-c2ccc3[nH]ccc3c2)n1 , write its reported MDR1-MDCK efflux ratio.
0.528

Given the compound CC(C)n1c(=O)cc(N[C@@H](C)c2ccccc2)[nH]c1=O , write its reported MDR1-MDCK efflux ratio.
58.2

Given the compound CN(CC(=O)Nc1cccc(S(=O)(=O)N2CCCC2)c1)C1CCCCC1 , write its reported MDR1-MDCK efflux ratio.
2.29

Given the compound Cc1cc(N2CCCCC2)nc(CNC(=O)c2ccccc2Cl)n1 , write its reported MDR1-MDCK efflux ratio.
0.671

Given the compound Cc1ccc2[nH]c(C3CCN(C)CC3)nc2c1 , write its reported MDR1-MDCK efflux ratio.
2.88

Given the compound Cc1cc(C)cc(OCCN(C)C(=O)NCCN2CCCCC2=O)c1 , write its reported MDR1-MDCK efflux ratio.
29.2

Given the compound Cc1cc(Nc2nc(N[C@@H](C)c3ncc(F)cn3)ncc2Cl)n[nH]1 , write its reported MDR1-MDCK efflux ratio.
10.5

Given the compound N#Cc1cccc(CN2CCC=C(CNC(=O)c3cccs3)C2)c1 , write its reported MDR1-MDCK efflux ratio.
2.25

Given the compound CC(=O)Nc1ccccc1CN1CCC(c2nnc3ccccn23)CC1 , write its reported MDR1-MDCK efflux ratio.
49.3
